# credit: a melting point compilation (Tetko et al.; mined from patent text by program, amines drawn as free bases though some values may be those of a salt)

quantity: melting point

COc1ccc(-c2ccnnc2)cc1OC1CCCC1	100 to 102 °C
CCCCCCCCCCCCc1nnn(C(C(=O)Nc2c(OC)cc(OC)cc2OC)C(C)C)n1 (centres undefined)	135 to 137 °C

Query: Request the reported melting point associated with C=C(c1ccc(OC)cc1)c1cc(C(=C)c2ccc(OC)cc2)cc(C(=C)c2ccc(OC)cc2)c1
Reply: 116 to 118 °C

Query: Request the reported melting point associated with COC=Nc1c(S(=O)(=O)C(F)(F)F)c(-c2ncon2)nn1-c1c(Cl)cc(C(F)(F)F)cc1Cl
Reply: 158 °C

Query: Request the reported melting point associated with CC1(c2ccccc2)Cc2cc(OCC#N)c(Cl)c(Cl)c2C1=O (centres undefined)
Reply: 163 to 165 °C

Query: Request the reported melting point associated with O=C1CCC(c2ccc3[nH]c(-c4ccnnc4)cc3c2)=NN1
Reply: > 300 °C

Query: Request the reported melting point associated with CCCCCCC1=NOC(=O)/C1=C\Nc1ccc(CCCCCC)cc1
Reply: 88 to 90 °C

Query: Request the reported melting point associated with COc1cccc(-c2nc(-c3ccccc3)c3ncc(-c4cccnc4)cc3n2)c1
Reply: 134 to 135 °C

Query: Request the reported melting point associated with Nc1ccccc1NC(=O)c1ccc(C(=O)Nc2cccc(Nc3nc(-c4cccnc4)cs3)c2)cn1
Reply: 148 to 150 °C

* * *

quantity: melting point

CS(=O)(=O)OCCOc1ccccc1OCC(F)(F)F	36 to 38 °C
C=CCc1cc2c(c(CC=C)c1O)CCC(=O)N2CC=C(C)C	133 to 135 °C
CC(C)(C)OC(=O)N1CCC(n2cc(-c3ccc(Oc4ccccc4)cc3)c3c(N)ncnc32)C1 (stereo not given)	168 to 170 °C
COC(=O)N[C@@H](Cc1ccc(OCc2ccccc2)cc1)C(=O)Nc1c(C(C)C)cccc1C(C)C	179 to 182 °C
Cc1ccc2c3c(ccc2n1)OCC(CN1CCC(C#N)(c2ccccc2)CC1)O3 (stereo not given)	185 to 187 °C
NC(=O)N1CCN(CC(O)COc2ccc(Cl)cc2)CC1 (stereo not given)	193 to 196 °C

Query: Request the reported melting point associated with O=C(O)C=CC(=O)Nc1n[nH]c2ccc(Br)cc12
Reply: 172 °C

Query: Request the reported melting point associated with CCCCC[C@H](CC(=O)Nc1c(F)cc(F)cc1F)c1cccc2c1OCO2
Reply: 88 to 89 °C

Query: Request the reported melting point associated with CC(=O)Oc1ccc(C(=O)c2ccc(C)c(OC(C)=O)c2)cc1
Reply: 60 to 64 °C

Query: Request the reported melting point associated with CC(=O)n1c2ccccc2c2ccc(C(=O)CCl)cc21
Reply: 175 to 176 °C

* * *

quantity: melting point

Answered cases to consult:
CC1(C)C(=O)N(c2ccc([N+](=O)[O-])c(C(F)(F)F)c2)C(=O)N1CCCN1C(=O)N(c2ccc([N+](=O)[O-])c(C(F)(F)F)c2)C(=O)C1(C)C	164 to 165 °C
N#Cc1ccc(-c2ccc(Cl)cc2)[nH]c1=O	330 to 339 °C
Cc1nc2c(N)nc3ccccc3c2n1OCc1ccccc1[N+](=O)[O-]	215 to 217 °C
CC(C)Oc1ccc(-n2c(C(=O)O)c(C(=O)O)c3cc(Oc4ncccc4C(N)=O)ccc32)cc1	236 to 238 °C
CC(=O)NC(CC(=O)O)CN(C)C (centres undefined)	202 °C

Query: Request the reported melting point associated with ClCCCOc1ccccc1Nc1nc(Cl)nc2[nH]cnc12
Reply: 205 °C

Query: Request the reported melting point associated with CS(=O)(=O)C1CC(=O)N1CC(=O)OCc1ccccc1 (single isomer, unassigned; (+))
Reply: 102 to 103 °C

Query: Request the reported melting point associated with Cc1cccc2c(-c3ccc(Cl)cc3Cl)onc12
Reply: 94 to 95 °C

Query: Request the reported melting point associated with Brc1cccc(C2Cc3cnc(Nc4ccc(CCNCCN5CCCC5)cc4)nc3-c3ccccc32)c1 (centres undefined)
Reply: 83 to 85 °C

Query: Request the reported melting point associated with Cc1noc(NC(=O)c2cnccc2C(F)(F)F)c1Cl
Reply: 153 to 156 °C

* * *

// values below are reported melting point

Answered cases to consult:
CC(C)(c1ccccc1)c1cccc(S(=O)(=O)NC(CCCNC(=N)N)C(=O)O)c1 (stereo not given)	122 to 124 °C
NCCN1C(=O)CN(c2ccc3c(c2)OCO3)C1=O	171 to 173 °C
O=C(Nc1ccc(-n2nc(-c3cccnc3)cc2C(F)F)cc1)c1ccncc1F	176 to 178 °C
O=C(CC(C(=O)O)c1ccccc1)Nc1cccc(/C=C/c2nc(C3CCC3)cs2)c1 (stereo not given)	202 to 203 °C
CC(=O)NCC1CN(c2ccc(-n3cccc3)c(F)c2)C(=O)O1 (stereo not given)	198 to 200 °C

Query: Request the reported melting point associated with c1ccc(-c2cc(-c3csc(Nc4ccncc4)n3)on2)cc1
Reply: 269 to 270 °C

Query: Request the reported melting point associated with CCn1ncnc1COc1nn2c(-c3cc(F)ccc3F)nncc2c1C(C)(C)CC
Reply: 85 to 86 °C

Query: Request the reported melting point associated with CN1c2ccc(C#CCOC3CCCCO3)cc2C(=O)CS1(=O)=O (stereo not given)
Reply: 107 to 108 °C

Query: Request the reported melting point associated with CC(Cc1ccccc1)NC(=O)C(F)(F)F (stereo not given)
Reply: 82 to 83 °C

Query: Request the reported melting point associated with CSc1nc(O)cc(O)n1
Reply: > 250 °C

* * *

// values below are reported melting point

CNC(=O)c1ccccc1Nc1nc(Nc2ccc3c(c2)CCC(NCC(F)(F)F)CC3)ncc1Cl (configuration not stated)	202 to 203 °C

Query: Request the reported melting point associated with Cc1nc2c(cc1C=O)CCCCC2
Reply: 38 to 40 °C

Query: Request the reported melting point associated with CCOC(=O)c1ccc(NCCOc2ccc(Br)c3ccccc23)cc1
Reply: 126 to 127 °C

Query: Request the reported melting point associated with CCOc1ccccc1C(=O)NC(=O)NC1CN2CCC1CC2 (configuration not stated)
Reply: 198 to 199 °C

Query: Request the reported melting point associated with CCOC(=O)Nc1ccc(C)c(Cl)c1
Reply: 51 to 52 °C

Query: Request the reported melting point associated with C=C(C)C(=O)OCc1ccc(OC2CCCCO2)cc1 (configuration not stated)
Reply: 36 to 36.7 °C

Query: Request the reported melting point associated with COC(=O)C(=C(C)C)N1C(=O)C(NC(=O)COc2ccccc2)C1SN1CCCCC1 (configuration not stated)
Reply: 65 °C

Query: Request the reported melting point associated with CCOC(=O)c1n[nH]c2c(=S)[nH]c3cc(Cl)ccc3c(=O)c12
Reply: 248 to 253 °C

Query: Request the reported melting point associated with CC1(C)CC(=O)C(C(=O)Nc2cccc([N+](=O)[O-])c2)C(=O)O1 (configuration not stated)
Reply: 138 to 140 °C

* * *

quantity: melting point

CS(=O)(=O)c1ccc(-c2oc3ccccc3c(=O)c2-c2cccc(Cl)c2)cc1	195 to 196 °C
C=C(C)c1cc(S(=O)(=O)c2ccc(N)cc2)cc(N2CCCC2)n1	200 to 201 °C
CC1(C)NC(=O)N(c2ccc([N+](=O)[O-])c(C(F)(F)F)c2)C1=N	168 °C
Nc1cc(F)cc(F)c1NC(=S)Nc1c(Cl)cccc1Cl	310 to 314 °C
CCOCc1nc2c(N)nc3ccccc3c2n1CC(C)(C)OCCS(C)(=O)=O	183 to 185 °C

Query: Request the reported melting point associated with O=C(O)C(F)Oc1ccc(Cl)cc1Cl (centres undefined)
Reply: 89 to 91 °C

Query: Request the reported melting point associated with COc1ccc(/C=N/Nc2nccc(C(F)(F)F)n2)cc1OC1CCCC1
Reply: 73 to 75 °C

Query: Request the reported melting point associated with Cc1cccc(C)c1C(=O)NCC(=O)N1c2ccccc2N(Cc2ccccc2)C(=O)[C@H]2CCC[C@H]21 (relative stereo)
Reply: 208 to 209 °C

Query: Request the reported melting point associated with O=C1C=C(N2CCC3(CC2)CSC2=C(O3)c3ccccc3C(=O)C2=O)c2ccccc2C1=O
Reply: 250 to 260 °C

* * *

// values below are reported melting point

Answered cases to consult:
O=C1NC(=O)c2c1cc1ccc3c(c1c2C1CCCCC1)OCO3	305 to 308 °C
COc1ccc2c(n1)C1(CO2)C(=O)N(Cc2ccc(C(F)(F)F)o2)c2ccc(F)cc21 (stereo unspecified)	158 to 160 °C
COc1cc(OC)c2sc(-c3ccc([N+](=O)[O-])cc3)nc2c1	238 to 239 °C
Cc1ccnc(NC(=O)Nc2cccc3c2C2CCCCN2C3=O)c1 (stereo unspecified)	178 to 180 °C
CC(C)Oc1ccnc2[nH]ccc12	182 to 184 °C

Query: Request the reported melting point associated with O=C(O)CCCc1cc2nc(Cl)ccc2n1S(=O)(=O)c1cc(Cl)ccc1Cl
Reply: 86 to 89 °C

Query: Request the reported melting point associated with CS(=O)(=O)Nc1ccc(OCC2CCN(c3cc([N+](=O)[O-])ccn3)CC2)cc1
Reply: 184 °C

Query: Request the reported melting point associated with Nc1c(Cl)ccc2c1C=C(C(=O)O)C(C(F)(F)F)O2 (stereo unspecified)
Reply: 208 to 210 °C

Query: Request the reported melting point associated with CCC1SC(c2ccncc2)=C(C)NC1=O (stereo unspecified)
Reply: 121 to 123 °C

Query: Request the reported melting point associated with O=[N+]([O-])c1cn2c(n1)OC[C@@H](OCc1ccc(Cl)nn1)C2
Reply: 180 to 184 °C

Query: Request the reported melting point associated with c1cnc2c(c1)-c1nc(NC3CCNCC3)ncc1-c1ccncc1N2
Reply: 189 to 191 °C

Query: Request the reported melting point associated with CN1C(=O)c2c(n3ccnc3c3c2c2cccnc2n3C2OC(CO)C(O)C(O)C2O)C1=O (stereo unspecified)
Reply: 298 °C

Query: Request the reported melting point associated with CCN1CCN(C/C=C/c2ccc3c(Nc4ccc(Sc5nccn5C)c(Cl)c4)c(C#N)cnc3c2)CC1
Reply: 232 to 236 °C
